- Experimental Target: CES1 (Homo sapiens, UniProt P23141)
- Construct: purchased Cypex Ltd. (Scotland, United Kingdom)
- Sequence (P23141 18-567): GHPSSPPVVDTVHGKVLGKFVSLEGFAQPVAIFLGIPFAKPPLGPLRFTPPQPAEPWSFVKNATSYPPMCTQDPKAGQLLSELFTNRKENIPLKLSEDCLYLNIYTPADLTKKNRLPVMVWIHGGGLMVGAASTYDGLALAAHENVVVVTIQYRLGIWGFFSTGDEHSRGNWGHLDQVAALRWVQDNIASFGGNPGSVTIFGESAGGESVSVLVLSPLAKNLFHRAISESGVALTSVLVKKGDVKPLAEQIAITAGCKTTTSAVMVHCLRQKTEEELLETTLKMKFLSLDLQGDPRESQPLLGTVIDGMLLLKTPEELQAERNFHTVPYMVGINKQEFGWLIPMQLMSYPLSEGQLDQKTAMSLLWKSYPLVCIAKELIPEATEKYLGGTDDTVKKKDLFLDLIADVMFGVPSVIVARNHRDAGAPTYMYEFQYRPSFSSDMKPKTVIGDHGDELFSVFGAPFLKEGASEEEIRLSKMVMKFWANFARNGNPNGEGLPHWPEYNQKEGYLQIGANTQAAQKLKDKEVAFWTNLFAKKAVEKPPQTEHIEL
- Experimental Details: Hydrolase activity by recombinant human CES1
- Format: in vitro ADME
- Measurement Parameters: human, recombinant human CES1, pH 7.4; recombinant CES1; calculated as Vmax/Km; read-out: CLint of vicagrel hydrolysis

# Molecule Smiles, microsomal CLint [µL/min/mg]
rows = [
    ("COC(=O)[C@H](c1ccccc1Cl)N1CCc2sc(OC(C)=O)cc2C1", 29000),
]

###

- Experimental Details: Hydrolase activity (kinetics and marker substrates) in human liver microsomes
- Format: in vitro ADME
- Measurement Parameters: human, human liver microsomes, pH 7.4; HLM 0.01 mg/mL, 1 min; formation of 2-oxo-clopidogrel; read-out: Km of vicagrel hydrolysis

# Molecule Smiles, Km at 1 min / µM
measured = [
    ("COC(=O)[C@H](c1ccccc1Cl)N1CCc2sc(OC(C)=O)cc2C1", 7.18),
]
